The reported measurements were obtained from ChEMBL document CHEMBL3352211.

# Test system: RAW264.7
# protocol.summary: Antiinflammatory activity in mouse RAW264.7 cells assessed as inhibition of NO production after 24 hrs by Griess assay
# Type: functional, cell-based
# stated.conditions: RAW264.7, 24 h
test.readout: IC50 (µM)
A number alone suffices; assume µM.

C=C(C)[C@@H]1C[C@H](OC(C)=O)C2=C(C(=O)C[C@]34CO[C@@]5(CC)CC[C@](C)(O5)[C@H]3CC[C@@]24C)[C@@]1(C)CCC(=O)OC = 98.3
C[C@]12CCC(=O)C=C1CC[C@@H]1[C@@H]2[C@@H](O)C[C@@]2(C)[C@H]1CC[C@]2(O)C(=O)CO [HYDROCORTISONE] = 53.7
C=C(C)[C@@H]1C[C@H](OC(C)=O)[C@]23OC[C@]4(CC(=O)[C@@H]2[C@@]1(C)CCC(=O)OC)[C@@]3(C)CC[C@@]41O[C@@]2(CC)CC[C@]1(C)O2 = 60.9

-- ask Recorded IC50 of C=C(C)[C@@H]1CC(=O)C2=C(C(=O)C[C@]34CO[C@@]5(CC)CC[C@](C)(O5)[C@H]3CC[C@@]24C)[C@@]1(C)CCC(=O)OC , please.
-- reply 24.3
